Origin of the recorded values: ChEMBL document CHEMBL5380877

- system.under.test: Orexin/Hypocretin receptor type 1 (Homo sapiens)
- Sequence (O43613 whole entry): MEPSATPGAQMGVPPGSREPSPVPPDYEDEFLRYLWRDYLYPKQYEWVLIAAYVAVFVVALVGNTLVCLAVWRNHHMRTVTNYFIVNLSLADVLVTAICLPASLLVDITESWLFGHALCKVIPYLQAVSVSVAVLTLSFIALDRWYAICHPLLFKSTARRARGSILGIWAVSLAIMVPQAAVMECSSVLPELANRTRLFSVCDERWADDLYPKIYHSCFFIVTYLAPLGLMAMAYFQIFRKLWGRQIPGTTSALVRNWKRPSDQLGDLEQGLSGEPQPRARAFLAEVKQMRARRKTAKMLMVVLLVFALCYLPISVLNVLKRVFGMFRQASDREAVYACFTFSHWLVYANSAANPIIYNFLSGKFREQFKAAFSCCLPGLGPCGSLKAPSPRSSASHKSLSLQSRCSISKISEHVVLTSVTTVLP
- protocol.notes: Agonist activity at human OX1 receptor expressed in CHO cells assessed as increase in Ca2+ accumulation level measured after 24 hrs by FLIPR calcium 4 assay
observed.property: pEC50
Recall that pEC50 is obtained by taking minus log10 of the concentration measured in molar.

Asked: Hello, please tell me recorded pEC50 for this one: Cc1ccc2c(C(=O)N(C)C)cc(S(=O)(=O)Nc3cccc(NCCNC(=O)c4cccc(C)c4)c3)c-2cc1
Given back: 5.79
